pKd values by entry
Target: T1, cynomolgus mesothelin (cynomolgus)
T1 construct: also called cynoMSLN; Cyno MSLN
Assay: SPR
# pKd = -log10(concentration in molar units)

>  <binder>
HuAM7 (antibody, V domains shown, fully human antibody) VH: EVQLVQSGAEVKKPGASVKVSCKASGDTFNRYYVHWVRQAPGQGLEWMGIINPSGVSTTYAQKFQGRVTMTRDTSTSTVYMELSSLRSEDTAVYYCAEVRGSGYNYFGMDVWGQGTLVTVSS VL: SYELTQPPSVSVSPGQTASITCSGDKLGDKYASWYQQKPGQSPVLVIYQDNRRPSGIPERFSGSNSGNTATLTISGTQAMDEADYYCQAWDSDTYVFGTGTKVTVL

>  <pKd>
8.31

$$$$
>  <binder>
HuAM18 (antibody, V domains shown, fully human antibody) VH: EVQLVQSGAEVKKPGASVKVSCKASGDTFNRYYVHWVRQAPGQGLEWMGIINPSGVSTTYAQKFQGRVTMTRDTSTSTVYMELSSLRSEDTAVYYCAETRGSGYNYFGMDVWGQGTLVTVSS VL: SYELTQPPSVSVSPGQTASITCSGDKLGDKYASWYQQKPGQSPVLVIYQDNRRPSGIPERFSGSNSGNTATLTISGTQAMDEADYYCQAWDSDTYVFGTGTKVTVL

>  <pKd>
8.03

$$$$

Please turn your attention to the following entry.
Dear colleague, please send me the reported pKd for HuAM5 (antibody, V domains shown, fully human antibody) VH: EVQLVQSGAEVKKPGASVKVSCKASGDTFNRYYVHWVRQAPGQGLEWMGIINPSGVSTTYAQKFQGRVTMTRDTSTSTVYMELSSLRSEDTAVYYCAEVRGSGYNYFAMDVWGQGTLVTVSS VL: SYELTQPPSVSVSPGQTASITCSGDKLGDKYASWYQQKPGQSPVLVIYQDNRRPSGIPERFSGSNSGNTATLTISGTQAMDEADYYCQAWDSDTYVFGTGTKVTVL when you can.
8.31
